Tested on: common ragweed
Test: Greenhouse pre-emergence GR15/GR85 selectivity test
Format: in vivo
Settings: in rape, Table XV
Assignment: determine reported selectivity factor (GR15/GR85) for the given compounds.

Known results for compounds:
Cc1cccc(C(F)(F)F)c1N(COCC(C)C)C(=O)CCl [Example 5] ... > 1.1
Cc1cccc(C(F)(F)F)c1N(COC(C)C)C(=O)CCl [Example 4] ... > 1.1

Lookup: Please give the measured selectivity factor (GR15/GR85) for this compound: CCCOCN(C(=O)CCl)c1c(C)cccc1C(F)(F)F [Example 3]
Found: 1.8

====

Assignment: determine reported GR15 for the given compounds.
Test system: corn
Experiment: Greenhouse pre-emergence GR15/GR85 selectivity test
Format: in vivo
Conditions: Table V
One number for each entry, in Kg/Ha.

Known results for compounds:
CCOCCN(C(=O)CCl)c1c(C)cccc1C(F)(F)F [E, reference compound] ... 0.67
COCCN(C(=O)CCl)c1c(C)cccc1C(F)(F)F [C, reference compound] ... 1.3
CCOCN(C(=O)CCl)c1c(C)cccc1C(F)(F)F [Example 1] ... 2.2

Lookup: Please give the measured GR15 for this compound: COCC(C)N(C(=O)CCl)c1c(C)cccc1C(F)(F)F (stereo not shown) [D, reference compound]
Found: 2.0
